Molecular target: Delta-type opioid receptor (Homo sapiens)
Sequence (P41143 whole entry): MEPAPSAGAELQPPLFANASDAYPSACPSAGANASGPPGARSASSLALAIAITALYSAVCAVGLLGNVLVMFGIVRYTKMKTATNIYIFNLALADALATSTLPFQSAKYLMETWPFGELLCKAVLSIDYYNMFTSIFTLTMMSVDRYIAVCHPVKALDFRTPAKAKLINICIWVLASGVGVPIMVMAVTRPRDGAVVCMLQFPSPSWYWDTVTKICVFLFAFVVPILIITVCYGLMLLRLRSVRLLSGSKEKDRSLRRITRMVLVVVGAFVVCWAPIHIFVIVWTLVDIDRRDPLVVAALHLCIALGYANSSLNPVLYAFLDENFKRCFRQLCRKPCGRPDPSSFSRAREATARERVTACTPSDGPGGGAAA
Experiment: Safety47 Scan (DiscoverX - Eurofins)
measurementLabel: EC50

The recorded EC50 for `CC(C)(O)c1ccc(N2Cc3c(ccnc3-c3ccc(F)cc3OCC(F)(F)F)C2=O)cc1` is > 10 µM

====

Target: UniProtKB P23975
measurementLabel: IC50

`CC(C)(O)c1ccc(N2Cc3c(ccnc3-c3ccc(F)cc3OCC(F)(F)F)C2=O)cc1` tested on UniProtKB P23975 gave IC50: > 10 µM

====

Target: UniProt:P21554
Sequence (P21554 whole entry): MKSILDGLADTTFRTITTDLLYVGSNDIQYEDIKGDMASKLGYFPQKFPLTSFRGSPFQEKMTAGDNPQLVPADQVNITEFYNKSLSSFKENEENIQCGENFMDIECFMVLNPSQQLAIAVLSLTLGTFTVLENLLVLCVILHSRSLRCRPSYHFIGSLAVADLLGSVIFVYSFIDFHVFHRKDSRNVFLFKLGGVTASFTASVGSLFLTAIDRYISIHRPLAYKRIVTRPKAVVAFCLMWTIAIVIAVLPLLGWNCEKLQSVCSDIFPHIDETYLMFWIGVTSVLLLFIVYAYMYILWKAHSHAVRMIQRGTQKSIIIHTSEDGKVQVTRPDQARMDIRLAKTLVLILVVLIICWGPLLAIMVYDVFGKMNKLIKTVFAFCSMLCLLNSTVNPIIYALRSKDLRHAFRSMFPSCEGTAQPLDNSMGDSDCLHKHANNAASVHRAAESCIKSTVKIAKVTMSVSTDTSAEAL
Assay: Safety47 Scan (DiscoverX - Eurofins)
pEC50: −log10 of the molar value.
measurementLabel: pEC50

The recorded pEC50 for `CC(C)(O)c1ccc(N2Cc3c(ccnc3-c3ccc(F)cc3OCC(F)(F)F)C2=O)cc1` is < 5.00

====

Target: 3',5'-cyclic-AMP phosphodiesterase 4D (Homo sapiens)
pIC50: −log10 of the molar value.
measurementLabel: pIC50

`CC(C)(O)c1ccc(N2Cc3c(ccnc3-c3ccc(F)cc3OCC(F)(F)F)C2=O)cc1` tested on 3',5'-cyclic-AMP phosphodiesterase 4D (Homo sapiens) gave pIC50: < 5.00

====

Target: Prostaglandin G/H synthase 2 (Homo sapiens, UniProt P35354)
Sequence (P35354 whole entry): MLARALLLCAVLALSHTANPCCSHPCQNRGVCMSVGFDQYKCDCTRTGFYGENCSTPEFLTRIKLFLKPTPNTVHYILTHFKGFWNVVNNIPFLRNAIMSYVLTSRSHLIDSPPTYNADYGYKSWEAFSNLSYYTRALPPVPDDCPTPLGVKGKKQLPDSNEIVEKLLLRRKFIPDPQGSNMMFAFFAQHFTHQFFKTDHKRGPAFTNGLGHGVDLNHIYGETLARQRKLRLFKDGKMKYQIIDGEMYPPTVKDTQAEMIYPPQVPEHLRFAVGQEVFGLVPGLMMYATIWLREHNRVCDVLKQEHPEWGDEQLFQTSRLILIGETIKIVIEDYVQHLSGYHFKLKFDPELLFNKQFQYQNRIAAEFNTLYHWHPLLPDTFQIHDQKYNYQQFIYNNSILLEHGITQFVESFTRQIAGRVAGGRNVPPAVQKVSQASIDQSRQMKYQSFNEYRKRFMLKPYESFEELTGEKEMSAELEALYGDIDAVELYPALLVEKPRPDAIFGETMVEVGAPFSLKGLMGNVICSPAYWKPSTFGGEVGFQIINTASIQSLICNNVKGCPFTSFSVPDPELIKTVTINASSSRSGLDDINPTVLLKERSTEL
pIC50: −log10 of the molar value.
measurementLabel: pIC50

The recorded pIC50 for `CC(C)(O)c1ccc(N2Cc3c(ccnc3-c3ccc(F)cc3OCC(F)(F)F)C2=O)cc1` is < 5.00

====

Target: Amine oxidase [flavin-containing] A (Rattus norvegicus, UniProt P21396)
Sequence (P21396 whole entry): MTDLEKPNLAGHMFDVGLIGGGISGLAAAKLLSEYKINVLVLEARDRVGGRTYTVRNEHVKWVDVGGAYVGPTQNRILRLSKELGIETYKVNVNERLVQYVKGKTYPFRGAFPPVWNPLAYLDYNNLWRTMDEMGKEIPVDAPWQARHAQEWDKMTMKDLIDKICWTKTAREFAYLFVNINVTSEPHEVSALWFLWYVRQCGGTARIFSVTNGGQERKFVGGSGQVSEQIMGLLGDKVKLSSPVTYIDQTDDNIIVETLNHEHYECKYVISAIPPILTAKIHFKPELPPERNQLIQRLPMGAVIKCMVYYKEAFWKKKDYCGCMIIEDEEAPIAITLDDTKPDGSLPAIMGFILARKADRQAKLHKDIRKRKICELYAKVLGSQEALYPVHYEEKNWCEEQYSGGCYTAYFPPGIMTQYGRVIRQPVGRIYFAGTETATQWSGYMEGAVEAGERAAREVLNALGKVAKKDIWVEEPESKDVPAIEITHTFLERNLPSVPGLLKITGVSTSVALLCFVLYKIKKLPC
pIC50: −log10 of the molar value.
measurementLabel: pIC50

The recorded pIC50 for `CC(C)(O)c1ccc(N2Cc3c(ccnc3-c3ccc(F)cc3OCC(F)(F)F)C2=O)cc1` is < 5.00

====

Target: cGMP-inhibited 3',5'-cyclic phosphodiesterase 3A (Homo sapiens, UniProt Q14432)
pIC50: −log10 of the molar value.
measurementLabel: pIC50

`CC(C)(O)c1ccc(N2Cc3c(ccnc3-c3ccc(F)cc3OCC(F)(F)F)C2=O)cc1` tested on cGMP-inhibited 3',5'-cyclic phosphodiesterase 3A (Homo sapiens, UniProt Q14432) gave pIC50: < 5.00

====

Biological target: D(2) dopamine receptor (Homo sapiens)
Assay: Safety47 Scan (DiscoverX - Eurofins)
measurementLabel: EC50

The recorded EC50 for `CC(C)(O)c1ccc(N2Cc3c(ccnc3-c3ccc(F)cc3OCC(F)(F)F)C2=O)cc1` is > 10 µM

====

Target: Androgen receptor (Homo sapiens, UniProt P10275)
measurementLabel: IC50

The recorded IC50 for `CC(C)(O)c1ccc(N2Cc3c(ccnc3-c3ccc(F)cc3OCC(F)(F)F)C2=O)cc1` is > 10 µM

====

Biological target: Adenosine receptor A2a (Homo sapiens, UniProt P29274)
Test: Safety47 Scan (DiscoverX - Eurofins)
measurementLabel: EC50

The recorded EC50 for `CC(C)(O)c1ccc(N2Cc3c(ccnc3-c3ccc(F)cc3OCC(F)(F)F)C2=O)cc1` is > 10 µM

====

Molecular target: 5-hydroxytryptamine receptor 1B (Homo sapiens)
Sequence (P28222 whole entry): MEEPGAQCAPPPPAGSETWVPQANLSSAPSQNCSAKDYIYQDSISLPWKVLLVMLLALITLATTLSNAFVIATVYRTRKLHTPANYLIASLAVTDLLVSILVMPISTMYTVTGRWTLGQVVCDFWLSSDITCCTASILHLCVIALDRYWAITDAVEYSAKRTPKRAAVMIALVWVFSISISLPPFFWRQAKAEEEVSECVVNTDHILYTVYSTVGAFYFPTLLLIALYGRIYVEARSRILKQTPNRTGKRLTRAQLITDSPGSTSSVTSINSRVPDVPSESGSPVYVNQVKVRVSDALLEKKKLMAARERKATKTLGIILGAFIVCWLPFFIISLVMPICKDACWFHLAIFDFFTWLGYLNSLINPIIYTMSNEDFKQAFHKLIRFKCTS
pIC50: −log10 of the molar value.
measurementLabel: pIC50

`CC(C)(O)c1ccc(N2Cc3c(ccnc3-c3ccc(F)cc3OCC(F)(F)F)C2=O)cc1` tested on 5-hydroxytryptamine receptor 1B (Homo sapiens) gave pIC50: < 5.00

====

Molecular target: 5-hydroxytryptamine receptor 2A (Homo sapiens, UniProt P28223)
Sequence (P28223 whole entry): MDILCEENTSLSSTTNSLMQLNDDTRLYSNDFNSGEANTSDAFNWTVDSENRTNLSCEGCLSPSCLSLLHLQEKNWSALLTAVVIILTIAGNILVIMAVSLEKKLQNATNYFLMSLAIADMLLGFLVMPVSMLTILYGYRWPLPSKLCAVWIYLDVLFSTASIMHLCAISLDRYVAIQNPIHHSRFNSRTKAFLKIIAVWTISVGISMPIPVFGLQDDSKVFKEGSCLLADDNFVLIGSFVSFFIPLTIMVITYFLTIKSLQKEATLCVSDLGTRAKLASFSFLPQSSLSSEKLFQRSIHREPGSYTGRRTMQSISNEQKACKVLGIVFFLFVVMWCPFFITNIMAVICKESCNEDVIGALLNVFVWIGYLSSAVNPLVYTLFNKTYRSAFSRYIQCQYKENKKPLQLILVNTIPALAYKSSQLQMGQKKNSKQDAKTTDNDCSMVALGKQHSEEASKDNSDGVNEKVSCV
Assay: Safety47 Scan (DiscoverX - Eurofins)
pEC50: −log10 of the molar value.
measurementLabel: pEC50

The recorded pEC50 for `CC(C)(O)c1ccc(N2Cc3c(ccnc3-c3ccc(F)cc3OCC(F)(F)F)C2=O)cc1` is < 5.00

====

Biological target: Vasopressin V1a receptor (Homo sapiens)
Assay: Safety47 Scan (DiscoverX - Eurofins)
pIC50: −log10 of the molar value.
measurementLabel: pIC50

The recorded pIC50 for `CC(C)(O)c1ccc(N2Cc3c(ccnc3-c3ccc(F)cc3OCC(F)(F)F)C2=O)cc1` is < 5.00

====

Target: Histamine H2 receptor (Homo sapiens, UniProt P25021)
Sequence (P25021 whole entry): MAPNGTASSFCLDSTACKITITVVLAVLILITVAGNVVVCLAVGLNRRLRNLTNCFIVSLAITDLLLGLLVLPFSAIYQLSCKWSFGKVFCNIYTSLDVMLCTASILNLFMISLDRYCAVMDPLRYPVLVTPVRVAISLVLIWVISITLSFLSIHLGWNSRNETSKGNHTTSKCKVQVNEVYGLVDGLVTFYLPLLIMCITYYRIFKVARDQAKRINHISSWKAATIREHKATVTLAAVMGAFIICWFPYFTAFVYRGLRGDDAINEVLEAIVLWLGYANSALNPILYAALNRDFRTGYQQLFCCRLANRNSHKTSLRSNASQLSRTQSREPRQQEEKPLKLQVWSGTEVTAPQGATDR
Experiment: Safety47 Scan (DiscoverX - Eurofins)
pEC50: −log10 of the molar value.
measurementLabel: pEC50

The recorded pEC50 for `CC(C)(O)c1ccc(N2Cc3c(ccnc3-c3ccc(F)cc3OCC(F)(F)F)C2=O)cc1` is < 5.00

====

Biological target: UniProt P28222
Test: Safety47 Scan (DiscoverX - Eurofins)
measurementLabel: EC50 (nM)
Field format: number, assumed nM, no unit text.

The recorded EC50 for `CC(C)(O)c1ccc(N2Cc3c(ccnc3-c3ccc(F)cc3OCC(F)(F)F)C2=O)cc1` is 2800

====

Biological target: Sodium channel protein type 5 subunit alpha (Homo sapiens, UniProt Q14524)
Sequence (Q14524 whole entry): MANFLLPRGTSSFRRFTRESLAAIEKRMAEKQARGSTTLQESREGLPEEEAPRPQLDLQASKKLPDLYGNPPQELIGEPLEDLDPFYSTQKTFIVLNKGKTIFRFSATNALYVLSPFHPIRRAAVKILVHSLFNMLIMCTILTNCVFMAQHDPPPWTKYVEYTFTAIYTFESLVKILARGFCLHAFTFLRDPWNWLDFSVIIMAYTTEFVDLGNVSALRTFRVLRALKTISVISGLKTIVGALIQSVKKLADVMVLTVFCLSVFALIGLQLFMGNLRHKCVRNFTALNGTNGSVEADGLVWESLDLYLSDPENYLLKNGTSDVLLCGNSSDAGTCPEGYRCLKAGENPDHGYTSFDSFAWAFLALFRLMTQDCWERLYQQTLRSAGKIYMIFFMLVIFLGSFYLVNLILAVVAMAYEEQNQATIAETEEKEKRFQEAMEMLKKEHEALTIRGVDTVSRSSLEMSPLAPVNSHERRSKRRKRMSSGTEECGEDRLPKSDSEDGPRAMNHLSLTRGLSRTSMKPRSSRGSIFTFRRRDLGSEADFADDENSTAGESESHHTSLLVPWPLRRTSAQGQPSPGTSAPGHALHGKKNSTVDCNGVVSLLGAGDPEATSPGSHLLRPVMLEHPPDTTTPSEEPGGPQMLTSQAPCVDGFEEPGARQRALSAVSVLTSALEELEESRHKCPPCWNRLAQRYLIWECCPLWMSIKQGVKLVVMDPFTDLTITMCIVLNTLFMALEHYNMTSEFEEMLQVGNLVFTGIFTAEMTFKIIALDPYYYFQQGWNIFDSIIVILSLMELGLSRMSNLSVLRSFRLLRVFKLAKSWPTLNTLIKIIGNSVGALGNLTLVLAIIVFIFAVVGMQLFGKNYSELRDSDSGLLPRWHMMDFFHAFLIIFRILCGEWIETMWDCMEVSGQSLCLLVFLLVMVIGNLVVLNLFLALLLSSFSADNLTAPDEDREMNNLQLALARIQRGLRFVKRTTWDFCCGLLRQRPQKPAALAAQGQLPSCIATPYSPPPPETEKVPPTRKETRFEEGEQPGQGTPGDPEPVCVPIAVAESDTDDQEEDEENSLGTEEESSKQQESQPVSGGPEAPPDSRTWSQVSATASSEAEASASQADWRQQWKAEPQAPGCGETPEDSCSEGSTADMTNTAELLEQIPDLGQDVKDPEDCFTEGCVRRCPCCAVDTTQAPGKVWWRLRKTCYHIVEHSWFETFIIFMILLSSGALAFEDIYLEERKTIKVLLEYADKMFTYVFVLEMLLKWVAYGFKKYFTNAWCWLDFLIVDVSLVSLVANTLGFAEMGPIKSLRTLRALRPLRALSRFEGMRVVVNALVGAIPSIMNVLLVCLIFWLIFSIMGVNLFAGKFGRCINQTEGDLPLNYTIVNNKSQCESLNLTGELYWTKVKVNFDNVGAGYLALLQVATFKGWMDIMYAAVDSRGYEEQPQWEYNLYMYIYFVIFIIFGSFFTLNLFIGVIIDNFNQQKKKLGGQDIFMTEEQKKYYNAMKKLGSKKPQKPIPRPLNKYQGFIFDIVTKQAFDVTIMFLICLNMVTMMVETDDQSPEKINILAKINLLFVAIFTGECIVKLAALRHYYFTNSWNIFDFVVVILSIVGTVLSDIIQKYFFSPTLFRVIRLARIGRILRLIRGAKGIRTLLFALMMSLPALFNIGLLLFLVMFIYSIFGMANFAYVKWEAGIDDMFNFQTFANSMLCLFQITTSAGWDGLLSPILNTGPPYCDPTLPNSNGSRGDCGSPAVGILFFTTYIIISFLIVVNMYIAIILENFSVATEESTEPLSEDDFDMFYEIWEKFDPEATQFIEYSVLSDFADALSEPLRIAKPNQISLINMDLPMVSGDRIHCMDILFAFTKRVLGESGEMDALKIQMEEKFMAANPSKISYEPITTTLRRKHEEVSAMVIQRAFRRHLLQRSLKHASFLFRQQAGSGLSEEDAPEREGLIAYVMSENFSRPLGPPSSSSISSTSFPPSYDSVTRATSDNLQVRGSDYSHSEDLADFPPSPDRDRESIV
Test: Safety47 Scan (DiscoverX - Eurofins)
measurementLabel: IC50

The recorded IC50 for `CC(C)(O)c1ccc(N2Cc3c(ccnc3-c3ccc(F)cc3OCC(F)(F)F)C2=O)cc1` is > 10 µM

====

Biological target: Muscarinic acetylcholine receptor M3 (Homo sapiens, UniProt P20309)
Sequence (P20309 whole entry): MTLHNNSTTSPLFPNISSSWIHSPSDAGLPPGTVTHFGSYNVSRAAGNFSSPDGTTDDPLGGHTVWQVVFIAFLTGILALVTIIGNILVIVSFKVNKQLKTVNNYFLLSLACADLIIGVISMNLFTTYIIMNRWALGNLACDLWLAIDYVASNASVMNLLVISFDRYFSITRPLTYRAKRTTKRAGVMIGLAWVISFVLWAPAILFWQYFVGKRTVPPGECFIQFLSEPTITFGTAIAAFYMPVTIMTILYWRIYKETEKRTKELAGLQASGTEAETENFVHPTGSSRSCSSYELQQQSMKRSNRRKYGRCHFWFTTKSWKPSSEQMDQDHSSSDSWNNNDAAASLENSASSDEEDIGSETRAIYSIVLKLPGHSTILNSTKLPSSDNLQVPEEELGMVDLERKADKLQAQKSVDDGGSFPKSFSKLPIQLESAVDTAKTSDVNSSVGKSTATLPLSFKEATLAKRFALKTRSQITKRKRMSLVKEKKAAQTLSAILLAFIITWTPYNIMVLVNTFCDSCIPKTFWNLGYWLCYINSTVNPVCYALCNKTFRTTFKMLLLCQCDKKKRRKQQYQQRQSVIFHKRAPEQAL
Assay: Safety47 Scan (DiscoverX - Eurofins)
measurementLabel: EC50

The recorded EC50 for `CC(C)(O)c1ccc(N2Cc3c(ccnc3-c3ccc(F)cc3OCC(F)(F)F)C2=O)cc1` is > 10 µM

====

Biological target: Kappa-type opioid receptor (Homo sapiens, UniProt P41145)
Assay: Safety47 Scan (DiscoverX - Eurofins)
pEC50: −log10 of the molar value.
measurementLabel: pEC50

The recorded pEC50 for `CC(C)(O)c1ccc(N2Cc3c(ccnc3-c3ccc(F)cc3OCC(F)(F)F)C2=O)cc1` is < 5.00

====

Target protein (sequence): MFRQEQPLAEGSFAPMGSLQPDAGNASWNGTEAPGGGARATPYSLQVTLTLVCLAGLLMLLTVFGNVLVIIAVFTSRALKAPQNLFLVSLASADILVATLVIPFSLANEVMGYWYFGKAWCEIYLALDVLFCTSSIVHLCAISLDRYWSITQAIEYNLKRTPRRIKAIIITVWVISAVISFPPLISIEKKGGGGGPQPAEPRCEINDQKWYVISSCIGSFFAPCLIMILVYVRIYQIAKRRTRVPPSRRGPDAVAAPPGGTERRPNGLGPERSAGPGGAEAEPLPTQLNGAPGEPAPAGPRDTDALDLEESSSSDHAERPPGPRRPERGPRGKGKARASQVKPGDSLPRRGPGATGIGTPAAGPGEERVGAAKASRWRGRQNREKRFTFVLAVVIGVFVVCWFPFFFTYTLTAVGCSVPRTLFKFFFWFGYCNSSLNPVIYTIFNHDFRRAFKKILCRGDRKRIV
measurementLabel: IC50

The recorded IC50 for `CC(C)(O)c1ccc(N2Cc3c(ccnc3-c3ccc(F)cc3OCC(F)(F)F)C2=O)cc1` is > 10 µM

Provenance of the data: ChEMBL document CHEMBL5303768
